Test system: Plasmodium falciparum Sir2 (PF13_0152, Sir2A)
experiment description: Plasmodium falciparum Sir2A binding compounds – biochemical, small-molecule microarray, 635 nm fluorescence, primary screen (AID 1098);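 note: score merges spot fluorescence intensity with its signal-to-noise ratio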
stated conditions: fluorescence 635 nm, higher = more signal
Criterion met means recorded composite z-score is 1 or above; Criterion not met means it is below 1.

**Query** Quick check, composite z-score >= 1? CCCN1C(=O)[C@]2(Cc3ccccc31)N=C(c1ccc(OCCCO)cc1)O[C@@H]2c1ccccc1
**Result** Criterion met

**Query** Quick check, composite z-score >= 1? CN1C2C=C(CCCO)C(C3C(=O)N(C(N)=O)C(=O)C32)C1C1CC1 (stereo unspecified)
**Result** Criterion not met

**Query** Quick check, composite z-score >= 1? O=C1C2C=CC(C(O)C3CC=CCC3)N(Nc3ccccc3)C2C(=O)N1c1ccccc1 (stereo unspecified)
**Result** Criterion met

**Query** Quick check, composite z-score >= 1? CCOC(=O)C[C@H]1[C@H](OC(=O)c2cc3ccccc3oc2=O)[C@@H](NC(=O)c2ccccc2)c2cc(OCCCO)ccc2N1C(=O)c1ccccc1
**Result** Criterion not met

**Query** Quick check, composite z-score >= 1? NCCCCCNC(=O)[C@H]1C[C@H]2C(=O)N3CCC[C@H]3C(=O)N2[C@H]1c1cccc(OCCO)c1
**Result** Criterion not met

**Query** Quick check, composite z-score >= 1? CCOC(=O)C1=CC[C@@H](c2ccccc2)N(S(=O)(=O)c2ccc(C)cc2)[C@H]1c1ccccc1
**Result** Criterion not met

**Query** Quick check, composite z-score >= 1? CN(C)c1ccc(C(O)C2C=CC3C(=O)NC(=O)C3N2Nc2ccccn2)cc1 (stereo unspecified)
**Result** Criterion met

**Query** Quick check, composite z-score >= 1? O=C1[C@H]2C=C(I)[C@H](C[C@@H]2OCCOCCO)[C@@]12CO2
**Result** Criterion not met

**Query** Quick check, composite z-score >= 1? CS(=O)(=O)CCOC(=O)C1=CC(CCCO)=CC(c2ccc(CN3CCCC3)cc2)N(Cc2sc3ccccc3c2Cl)C=C1C(=O)OCCS(C)(=O)=O (stereo unspecified)
**Result** Criterion met

**Query** Quick check, composite z-score >= 1? C=C[C@H](C)[C@H](OC(=O)Nc1ccc(SC)cc1)c1ccc(OCCO)cc1
**Result** Criterion met

**Query** Quick check, composite z-score >= 1? COCCOC(=O)N1C(=O)[C@@]2(c3cc(C#CC4=CCCCC4)ccc31)[C@H](c1ccccc1OCCO)N1[C@H](c3ccccc3)[C@H](c3ccccc3)OC(=O)[C@H]1[C@@H]2C(=O)N1CCN(c2ncccn2)CC1
**Result** Criterion not met

**Query** Quick check, composite z-score >= 1? Cc1cc(C)c(C(O)C2C=CC3C(=O)N(c4ccccc4)C(=O)C3N2Nc2ccccc2F)c(C)c1 (stereo unspecified)
**Result** Criterion not met

**Query** Quick check, composite z-score >= 1? C=CCC(OC(C)=O)[C@@H]1[C@@H](N(Cc2ccc(-c3cccc(C(F)(F)F)c3)o2)C(=O)Cc2ccc(OC)cc2)c2cc(OCCCO)ccc2N1C(=O)c1ccc(-c2ccccc2)cc1 (stereo partly specified)
**Result** Criterion not met

**Query** Quick check, composite z-score >= 1? CC(C)N1C(=O)C[C@@](C(=O)O)(c2ccc([N+](=O)[O-])cc2)[C@H]1c1ccc(CO)cc1
**Result** Criterion met

**Query** Quick check, composite z-score >= 1? C=CC[C@@]1(C(=O)NCCCOC)N=C(c2ccc(OCCCO)cc2)O[C@@H]1c1ccccc1N=[N+]=[N-]
**Result** Criterion not met

**Query** Quick check, composite z-score >= 1? Cc1ccc(S[C@]2(C(=O)NCC(F)(F)F)CC(=O)N(Cc3cc(C(F)(F)F)cc(C(F)(F)F)c3)[C@@H]2c2ccc(CO)cc2)cc1
**Result** Criterion met

**Query** Quick check, composite z-score >= 1? COCC(=C=CC[C@H](O)c1ccccc1OCCO)C[C@H](O)c1ccccn1
**Result** Criterion not met

**Query** Quick check, composite z-score >= 1? CCCCC[C@H]1OC[C@@]23C=C(Br)[C@@H](CC12)[C@@]1(CO1)C3=O (stereo partly specified)
**Result** Criterion not met

**Query** Quick check, composite z-score >= 1? C[N+](C)(C)CCCCCCNC(=O)[C@@H]1C[C@@H]2C(=O)N3CCC[C@H]3C(=O)N2[C@@H]1c1ccc(O)cc1
**Result** Criterion met

**Query** Quick check, composite z-score >= 1? CCCC=C(CCC)[C@@H](NS(=O)(=O)CC12CCC(CC1=O)C2(C)C)c1ccc(C(=O)OC)cc1 (stereo partly specified)
**Result** Criterion not met

**Query** Quick check, composite z-score >= 1? COc1cccc(C)c1NC(=O)O[C@H]1[C@H](OC(=O)Nc2ccccc2-c2ccccc2)[C@H](OC(=O)Nc2ccccc2-c2ccccc2)[C@@H](OC)O[C@@H]1CO
**Result** Criterion not met

**Query** Quick check, composite z-score >= 1? CC(c1ccccc1)C(O)C1C=CC2C(=O)N(C)C(=O)C2N1Nc1ccccc1 (stereo unspecified)
**Result** Criterion met

**Query** Quick check, composite z-score >= 1? COc1ccc(CCNC(=O)[C@@]2(c3ccc([N+](=O)[O-])cc3)CC(=O)N(C3CCCCC3)[C@@H]2c2ccc(CO)cc2)cc1
**Result** Criterion not met

**Query** Quick check, composite z-score >= 1? C=C(C(=O)CC[C@H](OC(=O)c1ccccc1-c1ccccc1C(=O)O)c1cccc(OCCO)c1)C(C)C
**Result** Criterion not met

**Query** Quick check, composite z-score >= 1? Cc1ccc(S[C@]2(C(=O)NC(C)C)CC(=O)N(Cc3cc(C(F)(F)F)cc(C(F)(F)F)c3)[C@@H]2c2ccc(CO)cc2)cc1
**Result** Criterion met

**Query** Quick check, composite z-score >= 1? COC(=O)[C@@]1(Cc2ccc(OC)cc2)[C@H]2c3cc(C(=O)N4CCCC4)n(CCc4c[nH]c5ccc(O)cc45)c3C[C@H]2CN1C(=O)c1ccccc1
**Result** Criterion met

**Query** Quick check, composite z-score >= 1? CO[C@H]1O[C@H](CO)[C@@H](OC(=O)CCc2ccccc2)[C@@H]2OC(=O)[C@@H](Cc3ccccc3)C/C=C/C[C@H](Cc3ccccc3)C(=O)O[C@@H]12
**Result** Criterion not met

**Query** Quick check, composite z-score >= 1? CCOC(=O)C1=CC[C@@H](c2ccccc2F)N(S(=O)(=O)c2ccc(C)cc2)[C@H]1c1ccccc1
**Result** Criterion not met

**Query** Quick check, composite z-score >= 1? CCOC(=O)C[C@H]1[C@H](OC(=O)c2ccc(C(=O)c3ccccc3)cc2)[C@@H](NC(=O)CC(C)C)c2cc(OCCCO)ccc2N1C(=O)c1ccccc1
**Result** Criterion not met

----------
System: Fibrinogen (Alexa647-labelled)
experiment description: Alexa647-fibrinogen binding to printed small molecules – biochemical, small-molecule microarray, 635/667 nm fluorescence, artefact control for SMM control-protein annotation, profiling panel (AID 1131);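 note: z-score merges 667 nm fluorescence with per-spot signal-to-noise over triplicate slides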
stated conditions: fibrinogen-A647 binding fluorescence, higher = more signal
T means recorded composite z-score is -0.8 or above; F means it is below -0.8.

**Query** Quick check, composite z-score >= -0.8? CCOC(=O)C1=C[C@@H](c2ccccc2)N(S(=O)(=O)c2ccc(C)cc2)[C@H]1c1ccc(OC)cc1
**Result** T

**Query** Quick check, composite z-score >= -0.8? COCCCNC(=O)[C@@]1(Sc2ccc(C)cc2)CC(=O)N(C2Cc3ccccc3C2)[C@@H]1c1ccc(CO)cc1
**Result** F

**Query** Quick check, composite z-score >= -0.8? O=C1OCCC/C=C\[C@H]2OC34C=CCN(c5ccc6ccccc6c5)C(=O)[C@H]3N(CCO)C(=O)[C@@H]4C12 (stereo partly drawn)
**Result** F

**Query** Quick check, composite z-score >= -0.8? CC(=O)N1CC2(CC2)CC1c1ccccc1 (stereo not drawn)
**Result** T

**Query** Quick check, composite z-score >= -0.8? CC(C)NC(=O)[C@@]1(c2ccc([N+](=O)[O-])cc2)CC(=O)N(C2CCCCC2)[C@@H]1c1ccc(CO)cc1
**Result** T

**Query** Quick check, composite z-score >= -0.8? CO[C@H]1O[C@H](CO)[C@@H](OC(=O)CCc2ccccc2)[C@@H]2OC(=O)[C@@H](Cc3ccccc3)C/C=C/C[C@H](Cc3ccccc3)C(=O)O[C@@H]12
**Result** T

----------
Tested on: PRMT1 (protein arginine N-methyltransferase 1)
experiment description: small molecules binding arginine methyltransferase PRMT1 – biochemical, small-molecule microarray, 635 nm fluorescence, primary screen (AID 1088);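 note: binding of Prmt1 protein to compounds spotted on small-molecule microarray slides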
stated conditions: higher = more signal
So I've got a bunch of compounds here, and I need their composite z-score values.
Respond numerically, and do not add a unit to the figure.

**Query** I am curious: what composite z-score value has been reported for CC(=O)NCCCC[C@@H]1NC(=O)[C@@H]2C[C@H](C(=O)NCCCCCN)[C@H](c3ccc(O)cc3)N2C1=O ?
**Result** 1.32

**Query** I am curious: what composite z-score value has been reported for CC(C)[Si]1(C(C)C)OCc2cc(-c3ccc(-c4ccc(Cl)c(Cl)c4)o3)nc(-c3ccccc3)c21 ?
**Result** -0.715

**Query** I am curious: what composite z-score value has been reported for COc1cc2c(cc1O)C(c1ccc(CN3CCCC3)cc1)N(Cc1cc3c(cc1Br)OCO3)CC2 (centres undefined) ?
**Result** -0.137

**Query** I am curious: what composite z-score value has been reported for CN(C)c1ccc(C(O)C2C=CC3C(=O)NC(=O)C3N2Nc2ccccn2)cc1 (centres undefined) ?
**Result** 0.757

**Query** I am curious: what composite z-score value has been reported for CN(C)C(=O)[C@]1(Cc2ccccc2CN=[N+]=[N-])N=C(c2ccc(OCCCO)cc2)O[C@@H]1c1ccccc1 ?
**Result** 1.57

**Query** I am curious: what composite z-score value has been reported for C=C(/C(=C/C[C@H](OC(=O)c1ccncc1)c1ccc(CO)o1)c1cnc2ccccc2c1)C(C)C ?
**Result** 1.52

**Query** I am curious: what composite z-score value has been reported for CCCC1(C(=O)OC)C=C2C(=C(C)C(=O)C2C)CN1 (centres undefined) ?
**Result** -1.06

**Query** I am curious: what composite z-score value has been reported for CCCC[C@@H](O)C1=C(COc2ccccc2)C[C@H]2C(=O)N(Cc3ccccc3)C(=O)[C@H]2[C@H]1CO ?
**Result** 0.287

**Query** I am curious: what composite z-score value has been reported for CCCCNC(=O)c1ccc(C#CC(C)(C)C)c(OC(C)=O)c1 ?
**Result** 1.45

Recorded values, source PubChem BioAssay.
